All values here come from paper PMC9343874.

- MEASUREMENT_PROTOCOL: Pharmacokinetic study in rats after oral administration of cinobufacini capsule (UPLC-MS/MS of plasma)
- Type: in vivo, rat
- RECORDED_CONDITIONS: male, Sprague-Dawley, in vivo; rat plasma, oral cinobufacini capsule 1.8 g/kg (medium), mean ± SD, n = 6
METRIC_NAME: Cmax (ng/mL)
Just the number in ng/mL, nothing appended.

Use these answered entries as a reference point.
MOLECULE | Cmax (ng/mL)
C[C@]12CC[C@H](O)C[C@@]1(O)CC[C@@H]1[C@@H]2CC[C@]2(C)[C@@H](c3ccc(=O)oc3)[C@@H](O)[C@H]3O[C@]132 [DCT, desacetylcinobufotalin] | 12.3
C[C@]12CC[C@H](O)C[C@H]1CC[C@@H]1[C@@H]2CC[C@]2(C)[C@@H](c3ccc(=O)oc3)[C@@H](O)[C@H]3O[C@]132 [DCG, desacetylcinobufagin] | 35.6

Next item in the queue.
Kindly indicate its recorded Cmax. Item: C[C@]12CC[C@H](O)C[C@H]1CC[C@@H]1[C@@H]2CC[C@]2(C)[C@@H](c3ccc(=O)oc3)CC[C@]12O [BF, bufalin]
189

* * *

- MEASUREMENT_PROTOCOL: Pharmacokinetic study in rats after oral administration of cinobufacini capsule (UPLC-MS/MS of plasma)
- Format: in vivo, rat
- RECORDED_CONDITIONS: male, Sprague-Dawley, in vivo; rat plasma, oral cinobufacini capsule 3.6 g/kg (high), mean ± SD, n = 6; read-out: MRT0-t
METRIC_NAME: MRT last (h)
Provide only the numeric value, understood in h.

Previously resolved entries follow.
COMPOUND | METRIC_NAME | OBS_VALUE
C[C@]12CC[C@H](O)C[C@H]1CC[C@@H]1[C@@H]2CC[C@]2(C)[C@@H](c3ccc(=O)oc3)CC[C@]12O [BF, bufalin] | MRT last | 1.39
C[C@]12CC[C@H](O)C[C@@]1(O)CC[C@@H]1[C@@H]2CC[C@]2(C)[C@@H](c3ccc(=O)oc3)CC[C@]12O [TCG, telocinobufagin] | MRT last | 0.83

Indicate its recorded MRT last; the compound in question is C[C@]12CC[C@H](O)C[C@H]1CC[C@@H]1[C@@H]2[C@H](O)C(=O)[C@]2(C)[C@@H](c3ccc(=O)oc3)CC[C@]12O [ABG, arenobufagin]
1.2

* * *

- MEASUREMENT_PROTOCOL: Stability of analytes in rat plasma QC samples under storage conditions
- Type: physicochemical
- RECORDED_CONDITIONS: rat plasma, −80°C to room temperature; low QC level (4.99–5.00 ng/ml), n = 6
Three freeze–thaw cycles, RE values by entry
Kindly answer with a numeric value in %, unit omitted.

COMPOUND | OBS_VALUE
CC(=O)O[C@H]1[C@H]2O[C@]23[C@@H]2CC[C@]4(O)C[C@@H](O)CC[C@]4(C)[C@H]2CC[C@]3(C)[C@H]1c1ccc(=O)oc1 [CBT, cinobufotalin] | 4.3
C[C@]12CC[C@H](O)C[C@H]1CC[C@@H]1[C@@H]2CC[C@]2(C)[C@@H](c3ccc(=O)oc3)[C@@H](O)[C@H]3O[C@]132 [DCG, desacetylcinobufagin] | 3.0

Pending compound:
Give Three freeze–thaw cycles, RE for C[C@]12CC[C@H](O)C[C@H]1CC[C@@H]1[C@@H]2C(=O)[C@@H](O)[C@]2(C)[C@@H](c3ccc(=O)oc3)CC[C@]12O [PBG, pseudobufarenogin]
4.4
